- protocol text: solvent given as SMILES
- reported conditions: in c1ccccc1
result type: solvation free energy, 298 K (kcal/mol)
All answers are understood in kcal/mol, so give the number only.

compound smiles	units symbol	endpoint value
O=C=O	kcal/mol	-0.58

Inquiry: Entry CCCO : reported solvation free energy, 298 K = ?
Reply text: -3.97

Inquiry: Please give the measured solvation free energy, 298 K for this compound: ClCBr
Reply text: -4.32

---

Each entry below carries its reported solvation free energy, 298 K.
- protocol text: solvent given as SMILES
- reported conditions: in O=C1CCCCC1
Number in kcal/mol, nothing else.

Reference set, count: 6
compound	endpoint value
O=O	1.13
O=C(C(=O)c1ccccc1)c1ccccc1	-12.6
CN1C(=O)C(O)N=C(c2ccccc2)c2cc(Cl)ccc21 (stereo not given)	-19.6
O=C=O	-0.79
C1CCCCC1	-3.85
C=C	-0.55

Here is another compound to look at.
Inquiry: Which solvation free energy, 298 K value is on record for S=C=S ?
Reply text: -3.31

---

# solvation free energy, 298 K values compiled below
- protocol text: solvent given as SMILES
- reported conditions: in Brc1ccccc1
Express it in kJ/mol; write the number only.

compound smiles	solvation free energy, 298 K / kJ/mol
CCCC(C)C	-14.3
O=O	4.85
CCCO	-15.3
FS(F)(F)(F)(F)F	2.8
CC(C)(C)Cl	-14.4

Let's switch to this compound now.
Inquiry: Would you mind telling me what solvation free energy, 298 K value was observed for O=C=O ?
Reply text: -1.46

---

// reported solvation free energy, 298 K for each item listed
- protocol text: solvent given as SMILES
- reported conditions: in CCCCCCCCCO
Express your answer in kcal/mol, writing the number without its unit.

Below: 3 compounds and their reported solvation free energy, 298 K.
compound smiles	solvation free energy, 298 K / kcal/mol
O=[N+]([O-])c1cc(Cl)ccc1Cl	-8.13
CCCC#N	-4.07
O=O	1.06

Inquiry: Sample FS(F)(F)(F)(F)F — what was its solvation free energy, 298 K?
Reply text: 0.43

---

solvation free energy, 298 K values by entry
- protocol text: solvent given as SMILES
- reported conditions: in CCOc1ccccc1
Your answer is read as kcal/mol, so omit the unit and give the number.

The cases that follow already have their solvation free energy, 298 K on record.
compound smiles	endpoint value
Cc1ccccc1	-5.02
CCCC(C)C	-3.26
CC(C)CC(C)C	-3.64

Query compound follows.
Inquiry: Given the compound C1CCCCC1 , what is its reported solvation free energy, 298 K?
Reply text: -3.89

---

- protocol text: solvent given as SMILES
- reported conditions: in CCCCCCCC
result type: solvation free energy, 298 K (kcal/mol)
Give your result in kcal/mol as a bare value.

molecule	solvation free energy, 298 K (kcal/mol)
Cc1ccc(N)cc1	-6.29

Inquiry: So what's the measured solvation free energy, 298 K for this one? [2H][2H]
Reply text: 1.34

Inquiry: Field request: solvation free energy, 298 K | item: C=CCCC
Reply text: -3.1

Inquiry: Entry ClC(Cl)(Cl)Cl has what solvation free energy, 298 K?
Reply text: -3.98

Inquiry: Quick check: solvation free energy, 298 K of c1ccccc1 ?
Reply text: -3.96

Inquiry: Need solvation free energy, 298 K of CCCO , thanks.
Reply text: -2.91

---

- protocol text: solvent given as SMILES
- reported conditions: in CCCCCCCCCCCC
So basically, if solvation free energy, 298 K comes in under -4 kcal/mol it's Fulfilled, and if it's -4 kcal/mol or more it's Not fulfilled.

Use the examples below as a reference point.
compound smiles	assigned class
O=O	Not fulfilled
FS(F)(F)(F)(F)F	Not fulfilled
CCCC(C)C	Not fulfilled
c1ccccc1	Not fulfilled
O=[N+]([O-])c1cc(Cl)ccc1Cl	Fulfilled

From here, focus on the item given below.
Inquiry: Confirm or reject: solvation free energy, 298 K of C1CCCC1 lies strictly below -4 kcal/mol
Reply text: Not fulfilled

---

- protocol text: solvent given as SMILES
- reported conditions: in CC(C)OC(C)C
Note to self: values exactly at -5 kcal/mol are Y. So solvation free energy, 298 K at or above -5 kcal/mol is Y, below is N.

compound smiles	assigned class
CC(C)CC(C)C	Y

Inquiry: Given c1cc2c3c(cccc3c1)CC2 , state whether its solvation free energy, 298 K is at least -5 kcal/mol.
Reply text: N

Inquiry: Determine whether this compound has solvation free energy, 298 K no lower than -5 kcal/mol: C1CCCCC1
Reply text: Y

---

- protocol text: solvent given as SMILES
- reported conditions: in O
result type: solvation free energy, 298 K

compound	solvation free energy, 298 K
Cc1ccccc1C	-0.89 kcal/mol
CCC(O)CC	-4.35 kcal/mol
C1=CCCCC1	0.36 kcal/mol
CCCCCCCCCOC(=O)c1ccccc1C(=O)OCCCC	-6.67 kcal/mol

Inquiry: Suppose we examine the compound O=c1[nH]cc(Br)c(=O)[nH]1 ; what solvation free energy, 298 K value has been reported?
Reply text: -18.2 kcal/mol

Inquiry: Fill blank: measured solvation free energy, 298 K of the compound CCCCc1ccccc1 is ____.
Reply text: -0.37 kcal/mol

Inquiry: Which measured solvation free energy, 298 K value corresponds to COC(F)(F)C(Cl)Cl ?
Reply text: -1.12 kcal/mol

Inquiry: Which solvation free energy, 298 K value is on record for Cc1ccc(C2(C)CCCC2(C)C)cc1 (centres undefined) ?
Reply text: -0.61 kcal/mol

Inquiry: solvation free energy, 298 K lookup needed for C=CC(C)(C)O , thanks.
Reply text: -4.19 kcal/mol

---

- protocol text: solvent given as SMILES
- reported conditions: in CCCCCCO
Cut-off -60 kJ/mol on solvation free energy, 298 K, inclusive. At or above means yes (1); below means no (0).

Inquiry: Say whether ClC(Cl)(Cl)Cl shows solvation free energy, 298 K of -60 kJ/mol or more.
Reply text: yes (1)

Inquiry: Given O=C(O)c1cccc(Cl)c1 , state whether its solvation free energy, 298 K is at least -60 kJ/mol.
Reply text: yes (1)

Inquiry: Record CN1C(=O)C(O)N=C(c2ccccc2)c2cc(Cl)ccc21 (stereo not drawn) ; criterion: solvation free energy, 298 K no lower than -60 kJ/mol. Met?
Reply text: no (0)

Inquiry: Is the recorded value of solvation free energy, 298 K equal to or greater than -60 kJ/mol for this compound? CN(C)C(=O)Nc1ccc(Cl)cc1
Reply text: yes (1)

Inquiry: Could you verify whether the entry CC(=O)Nc1ccc(O)cc1 shows solvation free energy, 298 K of no less than -60 kJ/mol?
Reply text: no (0)

---

Measured solvation free energy, 298 K, listed per entry for reference.
- protocol text: solvent given as SMILES
- reported conditions: in CCCCCCCCCOC(=O)c1ccccc1C(=O)OCCCCCCCCC
Express your answer in kcal/mol, writing the number without its unit.

compound smiles	solvation free energy, 298 K, kcal/mol
c1ccccc1	-3.98
CCCC(C)C	-3.02
CCC(C)C	-2.36

Now examine the next entry.
Inquiry: Endpoint output: solvation free energy, 298 K of ClC(Cl)(Cl)Cl . Value?
Reply text: -3.85

---

- protocol text: solvent given as SMILES
- reported conditions: in Clc1ccccc1
Threshold check on solvation free energy, 298 K: strictly below -4 kcal/mol is fulfilled; on or above -4 kcal/mol is not fulfilled.

As a guide, the following entries are already answered.
compound	assigned class
c1ccccc1	fulfilled
CC(C)(C)Cl	not fulfilled
FS(F)(F)(F)(F)F	not fulfilled
O=C(O)c1cccnc1Nc1cccc(C(F)(F)F)c1	fulfilled
CC(C)Cc1ccc(C(C)C(=O)O)cc1 (stereo unspecified)	fulfilled
S	not fulfilled
ClCCl	not fulfilled
O=O	not fulfilled

Inquiry: Here's an entry: Cc1ccccc1 . Is its solvation free energy, 298 K below -4 kcal/mol?
Reply text: fulfilled

Inquiry: Given the entry [N-]=[N+]=O , would its reported solvation free energy, 298 K be below -4 kcal/mol?
Reply text: not fulfilled

---

# maps each entry to its solvation free energy, 298 K
- protocol text: solvent given as SMILES
- reported conditions: in CCCCCCCCC
Value expressed in kcal/mol; do not type the unit.

compound smiles	result type	endpoint value
FS(F)(F)(F)(F)F	solvation free energy, 298 K	-0.16
C1CCCCC1	solvation free energy, 298 K	-4.13
C=C	solvation free energy, 298 K	-0.6
CCCC(C)C	solvation free energy, 298 K	-3.67
C=CCC	solvation free energy, 298 K	-2.43

Inquiry: I am curious: what solvation free energy, 298 K value has been reported for CC(C)CC(C)C ?
Reply text: -4.1

Inquiry: Given the compound O=O , what is its reported solvation free energy, 298 K?
Reply text: 0.73

---

The following compounds are listed with their measured solvation free energy, 298 K values.
- protocol text: solvent given as SMILES
- reported conditions: in CC(=O)N(C)C
Please state the figure in kcal/mol; there is no need to write the unit.

compound smiles	solvation free energy, 298 K [kcal/mol]
ClCCl	-4.34

Inquiry: I'd like to know its solvation free energy, 298 K. The compound in question is c1ccc2c(c1)sc1ccccc12
Reply text: -11.5

Inquiry: Consider the compound CCCCOC(C)=O and give its measured solvation free energy, 298 K.
Reply text: -5.24

Inquiry: Quick check: solvation free energy, 298 K of CC(C)(C)Cl ?
Reply text: -3.1
